# experiment.notes: Substrate activity at ADH61 (unknown origin) assessed as specific enzyme activity using NADPH as cofactor at 2.5 to 10 mM measured for 30 mins in presence of Tris HCL buffer by UV-Vis spectroscopy analysis
# reported.conditions: Homo sapiens, dose 2.5-10 mM
reported.property: Activity (nmol/min/mg)

[[record]]
item_smiles = "CC(=O)c1cc[nH]n1"
reported_property = "Activity"
unit_string = "nmol/min/mg"
measured_number = 10.7

[[record]]
item_smiles = "CC(C)(C)NCC(=O)c1cc(Cl)c(N)c(Cl)c1"
reported_property = "Activity"
unit_string = "nmol/min/mg"
measured_number = 29

[[record]]
item_smiles = "CC(=O)c1ccc(O)cc1"
reported_property = "Activity"
unit_string = "nmol/min/mg"
measured_number = 12.7

[[record]]
item_smiles = "COc1ccc2c(c1)CCCC2=O"
reported_property = "Activity"
unit_string = "nmol/min/mg"
measured_number = 56.4

[[record]]
item_smiles = "CC(=O)c1ccc(C[C@H](N)C(=O)O)cc1"
reported_property = "Activity"
unit_string = "nmol/min/mg"
measured_number = 123

